Entries and their measured IC50 follow.
Molecular target: GST-TIE2 (intracellular domains of human TIE2) (Homo sapiens)
Sequence (Q02763 762-1104): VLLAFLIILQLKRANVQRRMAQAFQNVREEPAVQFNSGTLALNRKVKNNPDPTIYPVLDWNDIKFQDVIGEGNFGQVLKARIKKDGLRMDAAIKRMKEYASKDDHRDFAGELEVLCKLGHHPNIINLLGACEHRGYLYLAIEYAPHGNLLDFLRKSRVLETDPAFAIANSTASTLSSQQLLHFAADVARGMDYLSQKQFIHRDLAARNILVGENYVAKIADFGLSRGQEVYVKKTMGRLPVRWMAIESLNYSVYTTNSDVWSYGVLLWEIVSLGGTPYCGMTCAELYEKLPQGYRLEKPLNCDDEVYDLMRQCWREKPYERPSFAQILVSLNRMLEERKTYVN
Experiment: TIE-2 Enzyme Assay (TIE2-E2), LANCE method
Settings: read-out: TIE2 PIC50 TIE2-E2 assay
value_kind: IC50

{"compound": "Cc1cc(-c2nn(C)c3nc(NCCN4CCOCC4)ncc23)ccc1NC(=S)Nc1cccc(C(F)(F)F)c1 [Example 58]", "system_tested": "GST-TIE2 (intracellular domains of human TIE2) (Homo sapiens)", "value_kind": "IC50", "observed_result": "1000 to 10000 nM"}
{"compound": "Cn1nc(-c2ccc(NS(=O)(=O)c3cccc(Cl)c3Cl)cc2)c2cnc(NCCCN3CCCC3=O)nc21 [Example 67]", "system_tested": "GST-TIE2 (intracellular domains of human TIE2) (Homo sapiens)", "value_kind": "IC50", "observed_result": "1000 to 10000 nM"}
{"compound": "Cn1nc(-c2ccc(NS(=O)(=O)c3cccc(Cl)c3Cl)cc2)c2cnc(NCCCN3CCOCC3)nc21 [Example 103]", "system_tested": "GST-TIE2 (intracellular domains of human TIE2) (Homo sapiens)", "value_kind": "IC50", "observed_result": "> 10000 nM"}
{"compound": "Cn1nc(-c2ccc(NC(=O)Nc3cc(C(F)(F)F)ccc3F)cc2)c2cnc(NCCCCNC(=N)N)nc21 [Example 99]", "system_tested": "GST-TIE2 (intracellular domains of human TIE2) (Homo sapiens)", "value_kind": "IC50", "observed_result": "39.8 to 100 nM"}
{"compound": "Cn1nc(-c2ccc(NC(=O)Nc3cc(C(F)(F)F)ccc3F)cc2)c2cnc(NCCCCNS(C)(=O)=O)nc21 [Example 97]", "system_tested": "GST-TIE2 (intracellular domains of human TIE2) (Homo sapiens)", "value_kind": "IC50", "observed_result": "39.8 to 100 nM"}
{"compound": "Cn1nc(-c2ccc(NC(=S)Nc3cccc(C(F)(F)F)c3)cc2)c2cnc(NCCN3CCOCC3)nc21 [Example 36]", "system_tested": "GST-TIE2 (intracellular domains of human TIE2) (Homo sapiens)", "value_kind": "IC50", "observed_result": "100 to 1000 nM"}
{"compound": "CN1CCCC1CCNc1ncc2c(-c3ccc(NC(=O)Nc4cc(C(F)(F)F)ccc4F)c(F)c3)nn(C)c2n1 (centres unmarked) [Example 130]", "system_tested": "GST-TIE2 (intracellular domains of human TIE2) (Homo sapiens)", "value_kind": "IC50", "observed_result": "≤ 39.8 nM"}
{"compound": "Cn1nc(-c2ccc(NC(=O)Nc3cc(C(C)(C)C)on3)cc2)c2cnc(NCCN3CCOCC3)nc21 [Example 35]", "system_tested": "GST-TIE2 (intracellular domains of human TIE2) (Homo sapiens)", "value_kind": "IC50", "observed_result": "39.8 to 100 nM"}
